System: Staphylococcus epidermidis
Assay: Antimicrobial activity against Staphylococcus epidermidis ATCC 12228 at 400 ug after 18 hrs by disk diffusion method
Assay type: functional
Conditions: ATCC 12228, 18 h, read-out: DIZ
attribute_measured: zone of inhibition at 400 µg/disc

[[record]]
structure_smiles = "Cc1cc2c(c(O)c1-c1c(C)cc3c(c1O)/C(=C/NCCc1cccs1)C(=O)C(O)=C3C(C)C)/C(=C/NCCc1cccs1)C(=O)C(O)=C2C(C)C"
attribute_measured = "zone of inhibition at 400 µg/disc"
result = "21 mm"

[[record]]
structure_smiles = "CCCCOCCOCCN/C=C1\\C(=O)C(O)=C(C(C)C)c2cc(C)c(-c3c(C)cc4c(c3O)/C(=C/NCCOCCOCCCC)C(=O)C(O)=C4C(C)C)c(O)c21"
attribute_measured = "zone of inhibition at 400 µg/disc"
result = "12 mm"

[[record]]
structure_smiles = "COCCOC(CN/N=C/c1c(O)c(O)c(C(C)C)c2cc(C)c(-c3c(C)cc4c(C(C)C)c(O)c(O)c(/C=N/NCC(OCCOC)OCCOC)c4c3O)c(O)c12)OCCOC"
attribute_measured = "zone of inhibition at 400 µg/disc"
result = "13 mm"

